biological target: UniProtKB P22460; test: Inhibition of recombinant human Kv1.5 expressed in CHO cells by IonWork high-throughput electrophysiology assay; type: cell-based
Sequence (P22460 whole entry): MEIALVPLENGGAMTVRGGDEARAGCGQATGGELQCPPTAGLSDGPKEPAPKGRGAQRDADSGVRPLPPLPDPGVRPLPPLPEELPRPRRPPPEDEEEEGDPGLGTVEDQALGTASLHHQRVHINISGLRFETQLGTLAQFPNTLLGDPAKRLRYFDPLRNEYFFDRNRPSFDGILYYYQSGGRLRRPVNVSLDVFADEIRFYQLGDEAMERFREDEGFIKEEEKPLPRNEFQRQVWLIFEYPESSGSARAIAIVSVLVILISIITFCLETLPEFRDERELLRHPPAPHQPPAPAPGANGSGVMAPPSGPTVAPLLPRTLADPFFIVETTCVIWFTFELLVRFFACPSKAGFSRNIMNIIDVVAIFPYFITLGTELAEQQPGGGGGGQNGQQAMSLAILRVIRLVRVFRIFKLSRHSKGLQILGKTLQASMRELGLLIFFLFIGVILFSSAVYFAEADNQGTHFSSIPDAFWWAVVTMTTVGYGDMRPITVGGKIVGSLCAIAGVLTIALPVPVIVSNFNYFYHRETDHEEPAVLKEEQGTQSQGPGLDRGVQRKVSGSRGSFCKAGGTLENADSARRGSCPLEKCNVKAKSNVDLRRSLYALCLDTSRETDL
pIC50: −log10 of the molar value.
metric: pIC50

Answered examples (7):
compound: CCCN(CCC)[C@H](c1ccccn1)[C@@H](c1ccccn1)N(C[C@@H](C)O)C[C@@H](C)O
value: 5.68
--
compound: COCCN(C[C@H](C)O)[C@H](c1ccccn1)[C@@H](c1ccccn1)N1C2CCC1CC(OC)C2 (some centres undefined)
value: 5.25
--
compound: c1ccc([C@H]([C@H](c2ccccn2)N2CCCCC2)N2CCCCC2)nc1
value: 5.85
--
compound: CCCN(CC)[C@H](c1ccccn1)[C@@H](c1ccccn1)N(CCOC)C[C@H](C)CO
value: 5.00
--
compound: CCCN(C[C@H](C)O)[C@H](c1ccccn1)[C@@H](c1ccccn1)N1C2CCCC1CC2
value: 5.47
--
compound: c1ccc([C@H]([C@@H](c2ccccn2)N2CCCCC2)N2CCCCC2)nc1
value: 5.66
--
compound: c1ccc([C@H]([C@@H](c2ccccc2)N2CCCCC2)N2CCCCC2)cc1
value: 6.39

a. CCCN(CCC)[C@H](c1ccccn1)[C@@H](c1ccccn1)N(CCC)CCC
b. c1ccc([C@@H]([C@H](c2ccccn2)N2CCCCC2)N2CCCCC2)nc1
Which of these two has the smaller recorded pIC50: a or b ? Your answer should be the label of the entry you select.
b
(b: 5.32, a: 6.66)

====

experiment: Intrinsic clearance in human liver microsomes; assay type: ADME, Microsome; conditions: read-out: CLH
metric: microsomal CLint (µL/min/mg)

substanceSmiles: c1ccc([C@H]([C@@H](c2ccccc2)N2CCCCC2)N2CCCCC2)cc1
unitsText: µL/min/mg
microsomal CLint: 14

A. CCCN(CCC)[C@H](c1ccccn1)[C@@H](c1ccccn1)N(CCC)CCC
B. CCCN(CC)[C@H](c1ccccn1)[C@@H](c1ccccn1)N(CC)CCC
C. c1ccc([C@H]([C@H](c2ccccn2)N2CCCCC2)N2CCCCC2)nc1
Order by microsomal CLint, ascending. # answer = labels listed in requested order
B, A, C

====

molecular target: Voltage-dependent L-type calcium channel subunit alpha-1C (Homo sapiens); assay: Inhibition of CaV1.2 (unknown origin)
Sequence (Q13936 whole entry): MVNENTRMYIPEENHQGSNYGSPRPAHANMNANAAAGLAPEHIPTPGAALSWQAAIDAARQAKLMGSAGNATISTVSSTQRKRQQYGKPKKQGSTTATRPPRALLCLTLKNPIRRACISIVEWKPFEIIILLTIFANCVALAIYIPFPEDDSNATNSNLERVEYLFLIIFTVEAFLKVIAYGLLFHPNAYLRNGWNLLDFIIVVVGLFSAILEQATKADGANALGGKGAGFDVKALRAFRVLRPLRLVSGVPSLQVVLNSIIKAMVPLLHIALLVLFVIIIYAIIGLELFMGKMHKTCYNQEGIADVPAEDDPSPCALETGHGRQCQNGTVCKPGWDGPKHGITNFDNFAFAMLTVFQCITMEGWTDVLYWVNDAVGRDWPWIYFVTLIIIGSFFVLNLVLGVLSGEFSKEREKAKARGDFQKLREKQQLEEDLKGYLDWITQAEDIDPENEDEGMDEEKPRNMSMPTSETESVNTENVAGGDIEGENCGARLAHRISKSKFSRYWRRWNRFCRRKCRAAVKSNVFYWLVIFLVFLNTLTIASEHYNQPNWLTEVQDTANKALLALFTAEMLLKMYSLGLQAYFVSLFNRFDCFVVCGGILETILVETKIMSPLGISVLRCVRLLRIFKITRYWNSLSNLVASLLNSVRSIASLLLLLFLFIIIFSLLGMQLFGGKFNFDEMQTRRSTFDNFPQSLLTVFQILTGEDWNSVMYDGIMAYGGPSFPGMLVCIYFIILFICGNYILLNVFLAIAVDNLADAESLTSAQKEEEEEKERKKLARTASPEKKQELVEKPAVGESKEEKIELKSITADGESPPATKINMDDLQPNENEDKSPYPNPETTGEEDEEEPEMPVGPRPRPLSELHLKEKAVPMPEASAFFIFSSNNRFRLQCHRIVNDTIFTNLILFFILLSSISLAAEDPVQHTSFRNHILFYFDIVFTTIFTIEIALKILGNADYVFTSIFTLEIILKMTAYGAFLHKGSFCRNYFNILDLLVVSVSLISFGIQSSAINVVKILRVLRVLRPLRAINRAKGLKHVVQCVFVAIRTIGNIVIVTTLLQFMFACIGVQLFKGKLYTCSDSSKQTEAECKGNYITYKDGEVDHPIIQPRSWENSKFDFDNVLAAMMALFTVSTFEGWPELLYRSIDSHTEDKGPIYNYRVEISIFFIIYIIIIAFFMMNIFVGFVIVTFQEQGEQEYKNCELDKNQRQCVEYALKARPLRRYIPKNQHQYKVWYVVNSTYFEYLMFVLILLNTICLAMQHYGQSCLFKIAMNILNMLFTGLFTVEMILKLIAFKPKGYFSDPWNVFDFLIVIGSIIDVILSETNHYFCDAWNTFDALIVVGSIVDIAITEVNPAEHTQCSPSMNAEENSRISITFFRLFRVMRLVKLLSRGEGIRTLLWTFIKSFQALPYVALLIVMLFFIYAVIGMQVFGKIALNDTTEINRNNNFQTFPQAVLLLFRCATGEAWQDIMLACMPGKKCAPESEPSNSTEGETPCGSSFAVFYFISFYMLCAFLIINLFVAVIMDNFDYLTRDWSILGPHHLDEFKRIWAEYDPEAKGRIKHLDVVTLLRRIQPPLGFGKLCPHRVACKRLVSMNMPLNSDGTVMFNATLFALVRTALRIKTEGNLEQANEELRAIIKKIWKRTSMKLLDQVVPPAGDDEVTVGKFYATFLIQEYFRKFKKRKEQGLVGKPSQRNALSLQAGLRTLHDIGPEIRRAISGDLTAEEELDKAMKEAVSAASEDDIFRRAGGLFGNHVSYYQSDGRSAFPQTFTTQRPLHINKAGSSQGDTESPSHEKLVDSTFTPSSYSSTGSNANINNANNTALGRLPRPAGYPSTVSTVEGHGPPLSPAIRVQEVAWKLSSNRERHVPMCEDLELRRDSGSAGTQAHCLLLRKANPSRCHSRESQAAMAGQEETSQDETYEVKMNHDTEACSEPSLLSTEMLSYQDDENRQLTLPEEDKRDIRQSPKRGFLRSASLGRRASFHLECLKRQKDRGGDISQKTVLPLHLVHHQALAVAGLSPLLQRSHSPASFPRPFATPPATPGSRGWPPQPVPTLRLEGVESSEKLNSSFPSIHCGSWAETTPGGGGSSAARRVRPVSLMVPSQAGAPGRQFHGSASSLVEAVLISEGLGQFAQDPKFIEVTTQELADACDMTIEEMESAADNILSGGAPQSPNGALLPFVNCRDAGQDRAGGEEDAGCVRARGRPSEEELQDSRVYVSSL
metric: IC50

# lookup: IC50 of CCCN(CCC)[C@H](c1ccccn1)[C@@H](c1ccccn1)N(CCC)C[C@H](O)CO
> 33 µM

====

target: Sodium channel protein type 5 subunit alpha (Homo sapiens); test: Inhibition of Nav1.5 (unknown origin)
Sequence (Q14524 whole entry): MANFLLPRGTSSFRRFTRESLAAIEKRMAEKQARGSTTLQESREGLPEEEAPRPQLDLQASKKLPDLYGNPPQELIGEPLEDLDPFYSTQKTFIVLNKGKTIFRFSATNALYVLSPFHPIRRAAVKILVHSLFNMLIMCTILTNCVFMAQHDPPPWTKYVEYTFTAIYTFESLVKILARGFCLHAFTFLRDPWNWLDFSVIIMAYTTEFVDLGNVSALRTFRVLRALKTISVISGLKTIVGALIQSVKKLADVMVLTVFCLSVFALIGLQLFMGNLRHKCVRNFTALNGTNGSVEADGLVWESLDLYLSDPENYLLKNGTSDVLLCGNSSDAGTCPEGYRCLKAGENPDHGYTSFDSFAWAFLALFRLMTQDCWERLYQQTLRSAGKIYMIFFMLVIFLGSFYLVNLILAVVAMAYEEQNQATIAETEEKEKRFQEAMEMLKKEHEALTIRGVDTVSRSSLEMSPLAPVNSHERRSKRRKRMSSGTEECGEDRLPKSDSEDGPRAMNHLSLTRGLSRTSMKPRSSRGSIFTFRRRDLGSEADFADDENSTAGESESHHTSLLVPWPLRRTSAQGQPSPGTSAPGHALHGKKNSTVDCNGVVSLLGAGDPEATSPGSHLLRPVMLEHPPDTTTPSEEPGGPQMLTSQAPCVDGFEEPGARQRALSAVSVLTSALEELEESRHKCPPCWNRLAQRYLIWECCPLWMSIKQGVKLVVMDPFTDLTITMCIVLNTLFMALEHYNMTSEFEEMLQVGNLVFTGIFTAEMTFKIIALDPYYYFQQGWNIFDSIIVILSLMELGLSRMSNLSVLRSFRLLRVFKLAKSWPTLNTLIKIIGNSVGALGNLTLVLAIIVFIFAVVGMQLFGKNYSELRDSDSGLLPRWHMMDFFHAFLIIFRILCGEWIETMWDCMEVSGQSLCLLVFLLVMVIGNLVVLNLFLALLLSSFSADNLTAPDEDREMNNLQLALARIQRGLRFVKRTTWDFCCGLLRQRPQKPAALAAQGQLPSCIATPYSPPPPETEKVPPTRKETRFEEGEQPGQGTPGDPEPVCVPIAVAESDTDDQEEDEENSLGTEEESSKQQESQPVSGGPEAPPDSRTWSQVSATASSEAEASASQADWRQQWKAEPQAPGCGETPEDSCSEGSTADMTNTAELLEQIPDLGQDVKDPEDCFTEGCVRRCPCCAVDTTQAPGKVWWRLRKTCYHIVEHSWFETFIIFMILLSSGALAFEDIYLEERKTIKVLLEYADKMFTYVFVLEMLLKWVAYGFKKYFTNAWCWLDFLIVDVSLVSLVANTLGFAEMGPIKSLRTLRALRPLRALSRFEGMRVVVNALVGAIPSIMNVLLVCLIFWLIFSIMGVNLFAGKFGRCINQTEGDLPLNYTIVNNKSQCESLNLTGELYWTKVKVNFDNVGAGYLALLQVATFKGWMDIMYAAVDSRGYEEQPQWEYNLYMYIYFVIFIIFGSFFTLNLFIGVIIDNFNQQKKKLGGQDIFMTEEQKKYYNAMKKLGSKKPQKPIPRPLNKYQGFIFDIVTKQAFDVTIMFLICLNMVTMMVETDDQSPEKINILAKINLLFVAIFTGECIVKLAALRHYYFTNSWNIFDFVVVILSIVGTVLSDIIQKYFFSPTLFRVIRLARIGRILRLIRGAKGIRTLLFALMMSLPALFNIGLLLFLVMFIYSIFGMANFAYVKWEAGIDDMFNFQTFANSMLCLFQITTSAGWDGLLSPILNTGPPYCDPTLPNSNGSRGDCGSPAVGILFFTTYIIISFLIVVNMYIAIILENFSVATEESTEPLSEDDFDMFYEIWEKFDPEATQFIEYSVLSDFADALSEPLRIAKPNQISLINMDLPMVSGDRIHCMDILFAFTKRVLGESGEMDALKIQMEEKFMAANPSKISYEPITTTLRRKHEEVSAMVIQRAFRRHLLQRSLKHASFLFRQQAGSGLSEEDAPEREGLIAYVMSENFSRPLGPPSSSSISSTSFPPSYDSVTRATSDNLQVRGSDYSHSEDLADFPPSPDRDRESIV
metric: IC50 (µM)
Note: unit µM is implicit; provide only the numeric part.

IC50 of CCCN(CCC)[C@H](c1ccccn1)[C@@H](c1ccccn1)N(CCC)C[C@H](O)CO on Sodium channel protein type 5 subunit alpha (Homo sapiens)?
19

====

experiment: Renal clearance in dog; type: ADME, Canis lupus familiaris; conditions: in vivo
metric: CL renal (mL/min/kg)

compound: COCCN(C[C@H](C)O)[C@H](c1ccccn1)[C@@H](c1ccccn1)N1C2CCC1CC(OC)C2 (some centres undefined)
unitsText: mL/min/kg
CL renal: 7.1

A. CCCN(CCC)[C@H](c1ccccn1)[C@@H](c1ccccn1)N(CCOC)C[C@H](C)O
B. CCCN(CC)[C@H](c1ccccn1)[C@@H](c1ccccn1)N(CC)CCC
Among A and B , which shows a numerically higher CL renal result? Your answer should be the label of the entry you select.
A
(A: 2.5 mL/min/kg, B: 0.7 mL/min/kg)

====

test: Drug excretion in dog urine; format: ADME, Canis lupus familiaris; details: read-out: Drug excretion
metric: dose excreted (%)

A. CCCN(CCC)[C@H](c1ccccn1)[C@@H](c1ccccn1)N(CCC)C[C@H](O)CO
B. CCCN(CC)[C@H](c1ccccn1)[C@@H](c1ccccn1)N(CCOC)C[C@H](C)CO
Among A and B , which shows a numerically higher dose excreted result? Your answer should be the label of the entry you select.
B

====

experiment: Lipophilicity, log D of the compound by chromatographic method; type: physicochemical
metric: chromatographic logD

Answered examples (4):
substanceSmiles: c1ccc([C@H]([C@H](c2ccccn2)N2CCCCC2)N2CCCCC2)nc1
chromatographic logD: 4.6
//
substanceSmiles: CCCN(CC)[C@H](c1ccccn1)[C@@H](c1ccccn1)N(CC)CCC
chromatographic logD: 3.3
//
substanceSmiles: c1ccc([C@H]([C@@H](c2ccccc2)N2CCCCC2)N2CCCCC2)cc1
chromatographic logD: 4
//
substanceSmiles: c1ccc([C@@H]([C@H](c2ccccn2)N2CCCCC2)N2CCCCC2)nc1
chromatographic logD: 2.2

I. c1ccc([C@H]([C@@H](c2ccccn2)N2CCCCC2)N2CCCCC2)nc1
II. CCCN(CCC)[C@H](c1ccccn1)[C@@H](c1ccccn1)N(CCC)CCC
Among I and II , which shows a numerically higher chromatographic logD result? Your answer should be the label of the entry you select.
II
(II: 4.6, I: 2.2)

====

Target: G protein-activated inward rectifier potassium channel 1 (Homo sapiens)
Sequence (P48549 whole entry): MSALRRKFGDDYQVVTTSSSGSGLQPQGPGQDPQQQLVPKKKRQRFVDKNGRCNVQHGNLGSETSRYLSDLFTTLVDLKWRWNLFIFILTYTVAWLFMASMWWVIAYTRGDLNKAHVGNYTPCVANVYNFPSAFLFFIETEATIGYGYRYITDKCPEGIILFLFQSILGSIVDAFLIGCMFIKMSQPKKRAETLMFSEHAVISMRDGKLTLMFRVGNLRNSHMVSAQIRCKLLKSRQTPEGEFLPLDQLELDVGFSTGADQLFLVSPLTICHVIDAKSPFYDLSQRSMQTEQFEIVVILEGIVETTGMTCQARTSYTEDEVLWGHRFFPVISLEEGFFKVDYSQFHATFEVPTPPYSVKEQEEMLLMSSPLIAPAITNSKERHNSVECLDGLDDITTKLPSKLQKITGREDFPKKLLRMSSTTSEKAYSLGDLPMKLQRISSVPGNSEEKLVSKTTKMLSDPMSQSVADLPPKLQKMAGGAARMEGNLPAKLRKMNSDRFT
Experiment: Inhibition of Kir3.1 (unknown origin)
metric: pIC50
# log scale: pIC50 equals minus log10 of the concentration in mol/L

# lookup: pIC50 of CCCN(CCC)[C@H](c1ccccn1)[C@@H](c1ccccn1)N(CCC)C[C@H](O)CO
5.39

====

In what follows, each item is paired with its IC50 for Potassium voltage-gated channel subfamily E member 1 (Homo sapiens).
Note: unit µM is implicit; provide only the numeric part.

substanceSmiles: c1ccc([C@H]([C@@H](c2ccccc2)N2CCCCC2)N2CCCCC2)cc1
unitsText: µM
IC50: 1.4

// next item, IC50 requested
# lookup: IC50 of CCCN(CC)[C@H](c1ccccn1)[C@@H](c1ccccn1)N(CC)CCC
60

====

assay: Renal clearance in dog; type: ADME, Canis lupus familiaris; conditions: in vivo
metric: CL renal (mL/min/kg)

Answered examples (3):
substanceSmiles: CCCN(C[C@H](C)O)[C@H](c1ccccn1)[C@@H](c1ccccn1)N1C2CCCC1CC2
metric: CL renal
unitsText: mL/min/kg
value: 0.3
//
substanceSmiles: CCCN(CC)[C@@H](c1ccccn1)[C@H](c1cccc(C#N)c1)N(CCOC)C[C@@H](C)CO
metric: CL renal
unitsText: mL/min/kg
value: 1.8
//
substanceSmiles: CCCN(CCC)[C@H](c1ccccn1)[C@@H](c1ccccn1)N(CCC)C[C@H](O)CO
metric: CL renal
unitsText: mL/min/kg
value: 0.19

a. CCCN(CC)[C@H](c1ccccn1)[C@@H](c1cccc(C#N)c1)N(CCOC)C[C@H](C)CO
b. CCCN(CCC)[C@H](c1ccccn1)[C@@H](c1ccccn1)N(C[C@@H](C)O)C[C@@H](C)O
Which of these two has the smaller recorded CL renal: a or b ? Your answer should be the label of the entry you select.
a
(a: 2.1 mL/min/kg, b: 5.5 mL/min/kg)

====

experiment: Drug excretion in dog urine; type: ADME, Canis lupus familiaris; details: read-out: Drug excretion
metric: dose excreted (%)

Answered examples (2):
molecule: CCCN(CCC)[C@H](c1ccccn1)[C@@H](c1ccccn1)N(CCOC)C[C@H](C)O
unitsText: %
dose excreted: 11
//
molecule: CCCN(CC)[C@H](c1ccccn1)[C@@H](c1cccc(C#N)c1)N(CCOC)C[C@H](C)CO
unitsText: %
dose excreted: 4.4

a. CCCN(CC)[C@@H](c1ccccn1)[C@H](c1cccc(C#N)c1)N(CCOC)C[C@@H](C)CO
b. CCCN(CC)[C@H](c1ccccn1)[C@@H](c1ccccn1)N(CC)CCC
c. CCCN(C[C@H](C)O)[C@H](c1ccccn1)[C@@H](c1ccccn1)N1C2CCCC1CC2
d. COCCN(C[C@H](C)O)[C@H](c1ccccn1)[C@@H](c1ccccn1)N1C2CCC1CC(OC)C2 (some centres not stated)
e. CCCN(CCC)[C@H](c1ccccn1)[C@@H](c1ccccn1)N(C[C@@H](C)O)C[C@@H](C)O
Order by dose excreted, ascending. # answer = labels listed in requested order
a, b, c, e, d
